# SYSTEM NAME: SaSiaT (Staphylococcus aureus, UniProt A0A0H2XJ46)
# Sequence (A0A0H2XJ46 entry or part of it): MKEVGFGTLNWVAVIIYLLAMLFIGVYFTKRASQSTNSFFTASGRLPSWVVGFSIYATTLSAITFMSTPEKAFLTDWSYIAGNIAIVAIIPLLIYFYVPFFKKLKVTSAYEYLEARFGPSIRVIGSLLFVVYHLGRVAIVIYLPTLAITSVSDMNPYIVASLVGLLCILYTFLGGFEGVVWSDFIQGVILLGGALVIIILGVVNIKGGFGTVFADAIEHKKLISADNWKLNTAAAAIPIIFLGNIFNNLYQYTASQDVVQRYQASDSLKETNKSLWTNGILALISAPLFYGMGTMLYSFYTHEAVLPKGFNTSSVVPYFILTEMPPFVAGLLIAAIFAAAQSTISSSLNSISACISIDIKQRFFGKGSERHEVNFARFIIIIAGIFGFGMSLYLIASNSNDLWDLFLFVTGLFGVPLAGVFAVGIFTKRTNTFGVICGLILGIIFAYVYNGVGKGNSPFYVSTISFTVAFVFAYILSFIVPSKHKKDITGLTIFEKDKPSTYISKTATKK
# ASSAY REMARKS: nanoDSF thermal shift assay, SaSiaT
# Format: binding
# DETAILS: SaSiaT, three experiments, 1.25 mM
Item-by-item account of Overall average (Tm)
MEASURED ENDPOINT: Overall average (Tm)

{"columns": ["COMPOUND", "VALUE OBSERVED"],
 "data": [
  ["CC(=O)NC1C(OCc2ccccc2)CC(O)(C(=O)O)OC1C(O)C(O)CO (stereo not shown) [Compound 3a]", "56.1 °C"],
  ["[N-]=[N+]=NCC(=O)N[C@H]1[C@H]([C@H](O)[C@H](O)CO)O[C@@](O)(C(=O)O)C[C@@H]1O [Compound 6h, reference compound]", "52.8 °C"],
  ["CC(C)C(=O)NC1C(O)CC(O)(C(=O)O)OC1C(O)C(O)CO (stereo not shown) [Compound 6b]", "45.0 °C"],
  ["CC(=O)NC1C(O)CC(O)(C(=O)O)OC1C(O)C(O)CCl (stereo not shown) [Compound 8c]", "49.4 °C"],
  ["O=C(CO)N[C@H]1[C@H]([C@H](O)[C@H](O)CO)OC(O)(C(=O)O)C[C@@H]1O (stereo partly shown) [Neu5Gc, 5-N-glycolyl neuraminic acid, reference compound]", "53.4 °C"],
  ["CCC(=O)NC1C(O)CC(O)(C(=O)O)OC1C(O)C(O)CO (stereo not shown) [Compound 6a]", "41.6 °C"],
  ["CC(=O)NC1C(O)CC(O)(C(=O)O)OC1C(O)C(O)CI (stereo not shown) [Compound 8e]", "49.3 °C"],
  ["CC(=O)NC1C(OCc2ccc(F)cc2)CC(O)(C(=O)O)OC1C(O)C(O)CO (stereo not shown) [Compound 3b]", "56.4 °C"],
  ["CCSCC(O)C(O)C1OC(O)(C(=O)O)CC(O)C1NC(C)=O (stereo not shown) [Compound 8b]", "49.4 °C"],
  ["CC(=O)NC1C(O)CC(O)(C(=O)O)OC1C(O)C(O)CN=[N+]=[N-] (stereo not shown) [Compound 8g]", "48.2 °C"],
  ["O=C(CF)NC1C(O)CC(O)(C(=O)O)OC1C(O)C(O)CO (stereo not shown) [Compound 6f]", "51.7 °C"],
  ["CC(C)(C)C(=O)NC1C(O)CC(O)(C(=O)O)OC1C(O)C(O)CO (stereo not shown) [Compound 6c]", "43.8 °C"],
  ["CC(=O)N[C@H]1[C@H]([C@H](O)[C@H](O)CO)OC(C(=O)O)=C[C@@H]1O [Compound 9, reference compound]", "45.6 °C"],
  ["CC(=O)NC1C(OCc2ccc(Br)cc2)CC(O)(C(=O)O)OC1C(O)C(O)CO (stereo not shown) [Compound 3c]", "54.1 °C"],
  ["CC(=O)NC1C(OCc2cc(F)cc(F)c2)CC(O)(C(=O)O)OC1C(O)C(O)CO (stereo not shown) [Compound 3e]", "57.0 °C"],
  ["CC(=O)NC1C(OCc2cc(Br)cc(Br)c2)CC(O)(C(=O)O)OC1C(O)C(O)CO (stereo not shown) [Compound 3f]", "53.8 °C"]
]}

----------
# SYSTEM NAME: PmSiaT (Proteus mirabilis, UniProt B4EZY7)
# Construct: made in house
# Sequence (B4EZY7 whole entry): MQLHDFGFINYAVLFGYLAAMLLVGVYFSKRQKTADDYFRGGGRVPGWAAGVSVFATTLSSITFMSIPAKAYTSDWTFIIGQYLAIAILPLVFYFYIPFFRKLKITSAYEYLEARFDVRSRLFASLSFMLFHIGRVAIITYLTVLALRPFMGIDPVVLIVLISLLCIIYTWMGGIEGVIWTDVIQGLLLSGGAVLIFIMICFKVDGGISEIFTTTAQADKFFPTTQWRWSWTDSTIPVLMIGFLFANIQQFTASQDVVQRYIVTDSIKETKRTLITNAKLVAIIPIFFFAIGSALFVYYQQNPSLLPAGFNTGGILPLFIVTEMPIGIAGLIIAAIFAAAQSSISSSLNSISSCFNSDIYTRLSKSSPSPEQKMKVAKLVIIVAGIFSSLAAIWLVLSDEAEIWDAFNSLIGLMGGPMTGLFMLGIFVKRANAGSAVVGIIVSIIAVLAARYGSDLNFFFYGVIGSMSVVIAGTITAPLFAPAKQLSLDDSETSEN
# ASSAY REMARKS: Isothermal titration calorimetry, PmSiaT
# Format: binding
# DETAILS: PmSiaT Kd, ITC, Table S4
pKd: −log10 of the molar value.
Item-by-item account of pKd

{"columns": ["COMPOUND", "pKd"],
 "data": [
  ["CC(=O)NC1C(OCc2ccccc2)CC(O)(C(=O)O)OC1C(O)C(O)CO (stereo not drawn) [Compound 3a]", 5.06],
  ["CC(=O)NC1C(OCc2cc(F)cc(F)c2)CC(O)(C(=O)O)OC1C(O)C(O)CO (stereo not drawn) [Compound 3e]", 5.22],
  ["CC(=O)NC1C(OCc2cc(Br)cc(Br)c2)CC(O)(C(=O)O)OC1C(O)C(O)CO (stereo not drawn) [Compound 3f]", 6.57]
]}
